Taken from paper PMC7504348.

Biological target: acetylcolinesterase from electric eel (Type VI) (Electrophorus electricus, UniProt O42275)
Sequence (O42275 24-633): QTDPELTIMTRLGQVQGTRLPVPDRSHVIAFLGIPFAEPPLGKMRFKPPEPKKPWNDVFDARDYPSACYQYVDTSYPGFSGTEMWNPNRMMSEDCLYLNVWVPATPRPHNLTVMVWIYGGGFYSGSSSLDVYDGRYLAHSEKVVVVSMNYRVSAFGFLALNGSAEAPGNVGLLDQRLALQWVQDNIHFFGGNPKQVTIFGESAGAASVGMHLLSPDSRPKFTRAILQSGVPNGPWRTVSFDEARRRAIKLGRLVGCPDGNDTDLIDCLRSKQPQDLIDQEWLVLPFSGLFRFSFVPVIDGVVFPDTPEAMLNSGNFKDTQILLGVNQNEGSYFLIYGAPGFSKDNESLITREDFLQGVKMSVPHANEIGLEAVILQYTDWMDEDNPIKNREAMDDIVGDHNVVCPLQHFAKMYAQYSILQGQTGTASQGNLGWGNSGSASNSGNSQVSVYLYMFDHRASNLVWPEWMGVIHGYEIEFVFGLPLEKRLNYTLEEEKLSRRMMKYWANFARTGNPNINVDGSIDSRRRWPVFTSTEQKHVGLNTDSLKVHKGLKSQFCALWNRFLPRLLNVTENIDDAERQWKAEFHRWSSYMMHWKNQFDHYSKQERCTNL
Range-based classes on measured IC50: low = under 20 µM, intermediate = from 20 µM up to 30 µM, high = 30 µM and over

Ask: Each molecule maps to one class by IC50. Which class for `CN(C)CCCN1c2ccccc2Sc2ccc(C(=O)/C=C/c3ccccc3C(F)(F)F)cc21` ?
Reply: high

Ask: Returns: class label. Input: `CN(C)CCCN1c2ccccc2Sc2ccc(C(=O)/C=C/c3ccc(N(C)C)cc3)cc21`
Reply: low

Ask: In plain terms, what class is `COc1ccc(/C=C/C(=O)c2ccc3c(c2)N(CCCN(C)C)c2ccccc2S3)cc1` ?
Reply: low

Ask: Which IC50 category applies to `CN(C)CCCN1c2ccccc2Sc2ccc(C(=O)/C=C/c3ccc(F)cc3)cc21` here?
Reply: intermediate

Ask: Lab note: sort `CN(C)CCCN1c2ccccc2Sc2ccc(C(=O)/C=C/c3ccc(Cl)cc3)cc21` into the matching IC50 band.
Reply: high

Ask: Class for `CN(C)CCCN1c2ccccc2Sc2ccc(C(=O)/C=C/c3c(F)cccc3Cl)cc21` ?
Reply: high

Ask: Which class holds `COc1cc(/C=C/C(=O)c2ccc3c(c2)N(CCCN(C)C)c2ccccc2S3)cc(OC)c1OC` ?
Reply: low

Ask: Pick a category. Item: `CN(C)CCCN1c2ccccc2Sc2ccc(C(=O)/C=C/c3cccc(Br)c3)cc21`
Reply: intermediate

Ask: # bin label for `CN(C)CCCN1c2ccccc2Sc2ccc(C(=O)/C=C/c3ccc(OCc4ccccc4)cc3)cc21`
Reply: low

Ask: Bin this entry: `CN(C)CCCN1c2ccccc2Sc2ccc(C(=O)/C=C/c3ccccc3)cc21`
Reply: high

Ask: Which bin, given its IC50, does `CN(C)CCCN1c2ccccc2Sc2ccc(C(=O)/C=C/c3ccccc3Cl)cc21` occupy?
Reply: low
